EXPERIMENTAL_PROTOCOL: yeast display, Sf9 membrane polyspecificity reagent, FACS + sequencing; frameworks hold sequencing errors

- SEQ_STRING: "QVQLVESGGGLVQAGGSLRLSCAASGFIFESTAMGWYRQAPGKERELVAGISNGDSTDYADSVKGRFTISRDNAKNTCYLQMNSLNPEDTAVYYCNAELWYSPYSQTTVRYDYWGQVTQVTVSS"
  polyreactivity (PSR sort gate): "low polyreactivity"
- SEQ_STRING: "QVQLEESGGGLVQAGGSLRLSCAASGFNFRKNVMGWYRPAPGKERELVAAISAPGGSTYYAHSVKGRFTISRDNGKNTGYLQMYCLKPEDPAVYFCKTDGYLYQYDYWGQGTQVTVSS"
  polyreactivity (PSR sort gate): "high polyreactivity"
- SEQ_STRING: "QVQLVESGGGLVQAGGSLRLSCAASGSTSYNAMGWYRQAPGKERELVAAISDGGGSTYYADSVKGRFTISRDNAKNTVYLQMNSLKPEDTAVYYCAADTITGDGYWAQGTQVTVSS"
  polyreactivity (PSR sort gate): "low polyreactivity"
- SEQ_STRING: "QVQLVESAGGLVQAGGSLRLSCDASGRIIRGNAMGWYRQAPGKEREMVAAINRSGGSTYYADSVKGRFTISRDNAKNTVYLQMKSLKQEDTAVYYCIAYPASRKTGWSSGYYYWGQGTQVTVSS"
  polyreactivity (PSR sort gate): "high polyreactivity"
- SEQ_STRING: "QVQLVESGGGLVQAGGSLRLSCAASGRTFYAYAMGWYRQAPGKERELVAAITKRDGITFYADSVKGRFTISRDNAKNTVYLQMNSLKPEDTAVYYCAATGYVGGIYGHYPRGYWGQGTQVTVSS"
  polyreactivity (PSR sort gate): "high polyreactivity"
- SEQ_STRING: "QVQLVESGGGLVQAGGSLRLSCAASGSTLFSYAMGWYRQAPRKEREFVAAISRRGGSTYYADSVKGRFTISRDNAKNTVYLQMNSLKPEVTAVYYCNTVRVHGFPIDRIYVYWGQGTQVTVSS"
  polyreactivity (PSR sort gate): "high polyreactivity"
- SEQ_STRING: "QVQLVESGGGLVQAGGSLRLSCAASGSIFYTNAMGWYRQAPGKERELVAAIRWSGGRTYYADSVKGRFTISRDNAKNTVYLQMNSLKPEDTAVYYCNKVPRTPIPYKYGYWGQGTQVTVSS"
  polyreactivity (PSR sort gate): "high polyreactivity"
- SEQ_STRING: "QVQLVESGRGLVQEGGSLRLSCAPSGSTFYRFAMGWYRQAPGKERELVAAISASGGSTYYADSVKGRFTISRDNAKYTVYLQMNSLKPEDTEVYYCNRDRRYRNDYWGQGTQVTVST"
  polyreactivity (PSR sort gate): "high polyreactivity"
- SEQ_STRING: "QVQLVESGGGLVQAGGSLRLSCAASGSTFYGYGMGWYREAPGKERELVAAITGSGDTTYYADSVKGRFTISRDNAKNTVYLQMNSLKREDTAVYYCNAGWHAEYDYWGQGTQVTVSS"
  polyreactivity (PSR sort gate): "low polyreactivity"
- SEQ_STRING: "QVQLVESGGGLVQAGGSLRLSCAASGSTITHNAMGWYRQAPGKERELVATISSGGSTNYADSVKGRFTISRDNAKNTVYLQMNRLKPEDTAVYYCAKPRYRSHVVYGPASGDDYWGQGTQVTVSS"
  polyreactivity (PSR sort gate): "low polyreactivity"
- SEQ_STRING: "QVQLVESGGGLVQAGGSLRLSCAASGFTFLYNVMGWYRQAPGKERELVAAISQSGTDTYYADSVKGRFTISRDNAKNTVYLQKNSLKPEDTAVYYCATEYYSQPRDDYWGQGTQVTVSS"
  polyreactivity (PSR sort gate): "low polyreactivity"
- SEQ_STRING: "QVQLVESGGCLVQAGGSLRLSFAASGSTLPYYSMGWYRHAPGKERELVAAITSSGGDTYYADSVKGRFTISRDIAKNTVYLQMNSLKPEDTAVYYCAKSFSARSTVRKLFYFAYDYWGQGTQVTVSS"
  polyreactivity (PSR sort gate): "low polyreactivity"
- SEQ_STRING: "QVQLVESGGGLVQAGGSLRLSCAASGSIFSTYAMGWYRQAPGKERELVATINYSGGSTYYADSVKGRFTISRDNAKNTVYLQMNSLKPEDTAVYYCNTGPFVGFDYWGQGTQVTVSS"
  polyreactivity (PSR sort gate): "low polyreactivity"
- SEQ_STRING: "QVQLVESGGVLVEAGGSLRLSCASSGRIFTYYSMGWYRQAPGKERELVAAISRSGRTYYADSVKGRFTISRDNAKNTVYLQMNSLKPEDSAVYFCAAEYYYSWFEYWGQGTQVTVSS"
  polyreactivity (PSR sort gate): "high polyreactivity"
- SEQ_STRING: "QVQLVESGGGLVQAGGSLRLSCAASGGTFARNAMGWYRQAPGKERELVAAIRGGVSTNYADSVKGRFTISRDNAKNTVYLQMNSLKPEDTAVYYCNASPPTLEGYWGQGTQVTVSS"
  polyreactivity (PSR sort gate): "low polyreactivity"
- SEQ_STRING: "QVQLVESGGGLVQAGGSLRLSCAASGNTFYSYAMGWYRQAPGKERELVAAITWGGRRKFADSVKGRFTSSRDNAKITVYLQMNSLKPEDTAVYYCAARLFHGKTKFDYSGQGTQVTVSS"
  polyreactivity (PSR sort gate): "high polyreactivity"
- SEQ_STRING: "QVQLVESGGGLVQAGGSLRLSCAASGFILLQYVMGWYRQAPGKERELVAAITSGGSTYYADSVKGRFTISRDNAKYTVYLQMNSLKPEDTAVYYCSTDVADNTFYALYGYDYWGQGTQVTVSS"
  polyreactivity (PSR sort gate): "low polyreactivity"
- SEQ_STRING: "QVQLVESGGGLVQAGGSLRLSCAASGRTFRGNAMGWYRQAPGKEREVVAAISWSGGNTYYADSVKGRFTISRDNAKNTVYLQMNSLKPEDTAVYYCAAGSYWSPYGQSFWPKYDYWGQGTQVTVSS"
  polyreactivity (PSR sort gate): "high polyreactivity"
- SEQ_STRING: "QVQLVESGGGLVQAGGSLRLTCAASGSTFPSYAMGWYRQAPGKERELVAAINSGGGTNYADSVKGRFTISRDNAKNTVYLHMNSLKPEDTAVYYCAKSRYDYTKTEGGYWGQGSQVTVSS"
  polyreactivity (PSR sort gate): "low polyreactivity"
- SEQ_STRING: "QVQLVESGGGIVQAGGSLRFSCAASGGTFYRYAMGWYRLAPGNERELVAAISSSGGSTYYAVSVKGRFTISRDNAKNTVYLQMNSLKPEDTAVYYCAAYSFQSHNFDYWGQGSQVTVSS"
  polyreactivity (PSR sort gate): "high polyreactivity"
- SEQ_STRING: "QVQLVESGGGLVQAGGSLRLSCAASGYIFLGNAMGWYRQAPGKERELVAAINSSGGSTYYADSVKGRFTISRDNAKNTVYLQMNSLKPEDTAVYYCATSDRDGIYVVPHMDYWGQGTQVTVSS"
  polyreactivity (PSR sort gate): "low polyreactivity"
